Test system: CCRF-CEM Cells
Assay: 2'-deoxyguanosine potentiation assay (cell growth inhibition of CCRF-CEM cells with d-Guo)
Type: cell-based
Conditions: Homo sapiens, 8-unsubstituted compounds, + 2'-d-Guanosine 5.62 uM, 72 hours
pIC50: −log10 of the molar value.
Below is a list of entries, each paired with its recorded pIC50 value.
ASSAY_ENDPOINT: pIC50

{"SMILES_RECORD": "Nc1nc2c(Cc3cccc(Cl)c3)c[nH]c2c(=O)[nH]1", "STUDY_TARGET": "CCRF-CEM Cells", "ASSAY_ENDPOINT": "pIC50", "REPORTED_RESULT": 6.10}
{"SMILES_RECORD": "Nc1nc2c(Cc3cccc(O)c3)c[nH]c2c(=O)[nH]1", "STUDY_TARGET": "CCRF-CEM Cells", "ASSAY_ENDPOINT": "pIC50", "REPORTED_RESULT": 5.77}
{"SMILES_RECORD": "Nc1nc2c(Cc3ccc(Cl)cc3)c[nH]c2c(=O)[nH]1", "STUDY_TARGET": "CCRF-CEM Cells", "ASSAY_ENDPOINT": "pIC50", "REPORTED_RESULT": 6.15}
{"SMILES_RECORD": "Nc1nc2c(Cc3ccccc3)c[nH]c2c(=O)[nH]1", "STUDY_TARGET": "CCRF-CEM Cells", "ASSAY_ENDPOINT": "pIC50", "REPORTED_RESULT": 6.22}
{"SMILES_RECORD": "Nc1nc2c(Cc3ccsc3)c[nH]c2c(=O)[nH]1", "STUDY_TARGET": "CCRF-CEM Cells", "ASSAY_ENDPOINT": "pIC50", "REPORTED_RESULT": 5.70}
{"SMILES_RECORD": "Nc1nc2c(Cc3ccco3)c[nH]c2c(=O)[nH]1", "STUDY_TARGET": "CCRF-CEM Cells", "ASSAY_ENDPOINT": "pIC50", "REPORTED_RESULT": 5.64}
{"SMILES_RECORD": "Nc1nc2c(Cc3cccs3)c[nH]c2c(=O)[nH]1", "STUDY_TARGET": "CCRF-CEM Cells", "ASSAY_ENDPOINT": "pIC50", "REPORTED_RESULT": 6.52}

###

Reported pIC50 is given for each of the following compounds.
Target: PNP (Calf spleen) (Bos taurus, UniProt P55859)
Construct: using calf spleen as the enzyme source; from tissue; host or cells: calf spleen
Sequence (P55859 whole entry): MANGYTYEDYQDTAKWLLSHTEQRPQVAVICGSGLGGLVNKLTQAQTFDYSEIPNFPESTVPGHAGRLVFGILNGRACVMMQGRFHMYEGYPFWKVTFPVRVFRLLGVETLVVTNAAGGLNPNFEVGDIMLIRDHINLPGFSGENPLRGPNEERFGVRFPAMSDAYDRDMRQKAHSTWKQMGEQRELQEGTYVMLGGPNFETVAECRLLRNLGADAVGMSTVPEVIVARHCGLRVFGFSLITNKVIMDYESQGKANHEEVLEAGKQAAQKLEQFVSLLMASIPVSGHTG
Experiment: in vitro PNP inhibition assay (radiochemical, [14C]-hypoxanthine formation from [14C]-inosine)
Type: biochemical
Settings: 8-unsubstituted compounds; calf spleen enzyme, 50 mM phosphate; read-out: PNP (Calf spleen) IC50
pIC50: −log10 of the molar value.
ASSAY_ENDPOINT: pIC50

{"COMPOUND": "Nc1nc2c(Cc3ccccc3O)c[nH]c2c(=O)[nH]1 [Example 3c]", "ASSAY_ENDPOINT": "pIC50", "REPORTED_RESULT": 5.71}
{"COMPOUND": "Nc1nc2c(Cc3ccc(Cl)c(Cl)c3)c[nH]c2c(=O)[nH]1 [Example 2i]", "ASSAY_ENDPOINT": "pIC50", "REPORTED_RESULT": 6.00}
{"COMPOUND": "Nc1nc(O)c2[nH]cc(Cc3ccccc3Cl)c2n1 [Example 2m]", "ASSAY_ENDPOINT": "pIC50", "REPORTED_RESULT": 5.64}
{"COMPOUND": "Nc1nc2c(Cc3cccc(C(F)(F)F)c3)c[nH]c2c(=O)[nH]1 [Example 2h]", "ASSAY_ENDPOINT": "pIC50", "REPORTED_RESULT": 6.60}
